Source of measurements: patent US20130324522A1

# measurement-target: OR28/OR7 (Anopheles gambiae, UniProt A0A1S4GFY3+Q7QCC7)
# Sequence (A0A1S4GFY3 entry or part of it): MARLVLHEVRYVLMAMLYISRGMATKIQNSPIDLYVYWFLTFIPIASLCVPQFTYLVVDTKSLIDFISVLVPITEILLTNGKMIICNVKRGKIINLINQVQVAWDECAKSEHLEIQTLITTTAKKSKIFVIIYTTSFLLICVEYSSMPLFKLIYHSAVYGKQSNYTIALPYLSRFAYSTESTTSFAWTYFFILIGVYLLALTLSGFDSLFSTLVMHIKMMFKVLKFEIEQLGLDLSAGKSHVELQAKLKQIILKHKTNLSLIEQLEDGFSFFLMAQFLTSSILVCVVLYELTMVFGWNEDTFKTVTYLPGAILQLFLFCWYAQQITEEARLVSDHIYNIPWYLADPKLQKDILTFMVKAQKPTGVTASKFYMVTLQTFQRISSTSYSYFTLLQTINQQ
# Sequence (Q7QCC7 whole entry): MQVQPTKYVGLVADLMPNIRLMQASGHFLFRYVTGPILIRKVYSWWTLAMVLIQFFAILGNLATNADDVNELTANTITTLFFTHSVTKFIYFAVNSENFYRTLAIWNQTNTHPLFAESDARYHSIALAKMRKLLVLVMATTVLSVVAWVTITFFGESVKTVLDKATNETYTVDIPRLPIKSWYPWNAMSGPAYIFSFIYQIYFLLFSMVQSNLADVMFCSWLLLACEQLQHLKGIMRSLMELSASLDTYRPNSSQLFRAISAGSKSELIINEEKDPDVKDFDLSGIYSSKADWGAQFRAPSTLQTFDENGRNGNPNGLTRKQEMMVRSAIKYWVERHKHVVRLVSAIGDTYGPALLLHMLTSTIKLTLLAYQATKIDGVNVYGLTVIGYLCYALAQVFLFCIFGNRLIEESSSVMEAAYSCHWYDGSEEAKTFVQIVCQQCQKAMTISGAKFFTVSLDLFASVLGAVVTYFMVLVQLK
# method-description: Ca2+-imaging of stable HEK293T cell line OR28/OR7
# Type: cell-based
# run-conditions: HEK-293T; compound applied at 4 μM; read-out: Percent Inhibition OR28 OR7
value-kind: inhibition at 4 µM

Example entries begin here.
>  <molecule>
CCN(CC)c1onc(-c2ccccc2)c1CN(CC1CCCO1)C(=O)c1ccco1 (centres unmarked)

>  <inhibition at 4 µM>
> 75%

$$$$
>  <molecule>
COCCN(Cc1nccn1Cc1c(F)cccc1Cl)C(=O)CCc1ccccc1

>  <inhibition at 4 µM>
> 75%

$$$$
>  <molecule>
CCCCc1nc(CN2CCc3c([nH]c4ccccc34)C2c2cccc(OC)c2OC)c[nH]1 (centres unmarked)

>  <inhibition at 4 µM>
> 75%

$$$$
>  <molecule>
COc1cccc(NC(=O)CCC2CCN(C(=O)CSc3ccccc3)CC2)c1

>  <inhibition at 4 µM>
51 to 74%

$$$$

Enquiry: // inhibition at 4 µM lookup, key: COc1ccccc1N1CCN(C(=O)c2cc3n(n2)CCN(Cc2c(F)cccc2Cl)C3=O)CC1
Return: > 75%

====

# measurement-target: serotonin receptor (5HT3) (Mus musculus, UniProt P23979)
# Construct: Full-length cDNAs for mosquito (Anopheles gambiae) odorant receptor; expressed in transfected cells
# Sequence (P23979 24-489): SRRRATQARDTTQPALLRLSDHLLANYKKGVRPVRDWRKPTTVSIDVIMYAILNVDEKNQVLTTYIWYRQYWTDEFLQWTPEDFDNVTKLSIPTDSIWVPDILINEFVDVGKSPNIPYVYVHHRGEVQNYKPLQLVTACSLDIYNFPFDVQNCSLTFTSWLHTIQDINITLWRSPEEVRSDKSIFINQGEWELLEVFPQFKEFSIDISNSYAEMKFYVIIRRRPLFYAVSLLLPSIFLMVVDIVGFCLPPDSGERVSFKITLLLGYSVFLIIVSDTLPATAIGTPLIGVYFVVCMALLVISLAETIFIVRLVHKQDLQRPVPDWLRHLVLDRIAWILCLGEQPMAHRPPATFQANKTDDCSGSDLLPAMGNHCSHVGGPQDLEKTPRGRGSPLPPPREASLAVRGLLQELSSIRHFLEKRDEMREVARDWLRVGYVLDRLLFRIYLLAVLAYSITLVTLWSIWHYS
# method-description: Ca2+-imaging of stable Flip-In T-Rex cell line 5HT3
# Type: cell-based
# run-conditions: compound applied at 4 μM; read-out: Percent Inhibition 5HT3
Measured inhibition at 4 µM, listed per entry for reference.

Enquiry: # query: inhibition at 4 µM of entry Cc1ccccc1C(=O)N[C@@H]1CCCCC1NC(=O)C1CCN(C(=O)c2ccc(C(C)(C)C)cc2)CC1 (some centres unmarked) [RU-0045678]
Return: 26 to 50%

====

# measurement-target: OR2/OR7 (Anopheles gambiae, UniProt Q7QCC7+Q8WTE6)
# Construct: Full-length cDNAs for mosquito (Anopheles gambiae) odorant receptor (OR1, OR2, OR7, OR8, OR28); expressed in transfected cells
# Sequence (Q8WTE6 whole entry, one chain of several): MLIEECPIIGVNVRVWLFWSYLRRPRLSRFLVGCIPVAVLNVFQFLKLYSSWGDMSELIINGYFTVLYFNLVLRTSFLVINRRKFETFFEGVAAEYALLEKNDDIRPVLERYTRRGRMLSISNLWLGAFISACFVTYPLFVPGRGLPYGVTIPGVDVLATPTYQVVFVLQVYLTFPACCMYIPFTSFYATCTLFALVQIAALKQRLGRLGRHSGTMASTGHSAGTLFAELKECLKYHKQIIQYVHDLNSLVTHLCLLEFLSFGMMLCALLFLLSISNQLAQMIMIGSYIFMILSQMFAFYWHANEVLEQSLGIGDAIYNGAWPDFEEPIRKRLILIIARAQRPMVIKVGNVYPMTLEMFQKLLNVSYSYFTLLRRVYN
# method-description: Ca2+-imaging of stable HEK293T cell line OR2/OR7
# Assay type: cell-based
# run-conditions: ligand 2-methyl phenol 30 μM; read-out: IC50 OR2 OR7
value-kind: IC50

Example compounds with recorded IC50:
>  <smiles-repr>
O=C(C1CCCC1)N(Cc1nccn1CCc1c(F)cccc1Cl)C1CC1

>  <result>
< 2 µM

$$$$
>  <smiles-repr>
C=CCN(Cc1nccn1Cc1cccc(F)c1)C(=O)c1ccccc1F

>  <result>
< 2 µM

$$$$
>  <smiles-repr>
CC(C)Nc1nc(NC(C)C)nc(C(F)(F)F)n1

>  <result>
< 2 µM

$$$$
>  <smiles-repr>
CC(C)Nc1nc(Cl)nc(NC(C)C)n1

>  <result>
< 2 µM

$$$$
>  <smiles-repr>
CCNc1nc(NCC)nc(SC)n1

>  <result>
20 to 50 µM

$$$$

// below: IC50 requested for another compound
Enquiry: Return IC50 measured with OR2/OR7 (Anopheles gambiae, UniProt Q7QCC7+Q8WTE6) given this compound: CC(C)Nc1nc(Cl)nc(N(C)C(C)C)n1
Return: < 2 µM

====

Attribute: inhibition at 4 µM
# measurement-target: mOREG (Mus musculus)
# Sequence (Q920P2 1-313): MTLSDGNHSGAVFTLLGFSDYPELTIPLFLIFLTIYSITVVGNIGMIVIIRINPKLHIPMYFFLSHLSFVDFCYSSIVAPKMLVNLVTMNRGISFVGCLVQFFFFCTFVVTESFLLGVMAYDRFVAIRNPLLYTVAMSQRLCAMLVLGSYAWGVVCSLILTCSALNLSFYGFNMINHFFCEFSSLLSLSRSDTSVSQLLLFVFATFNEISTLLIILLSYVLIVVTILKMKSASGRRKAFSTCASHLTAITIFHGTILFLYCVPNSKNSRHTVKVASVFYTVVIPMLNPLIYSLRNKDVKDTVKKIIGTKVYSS
# method-description: Ca2+-imaging, control receptor mOREG
# Type: cell-based
# run-conditions: compound applied at 4 μM; read-out: Percent Inhibition mOREG

Enquiry: inhibition at 4 µM lookup needed for Cc1ccccc1C(=O)N[C@@H]1CCCCC1NC(=O)C1CCN(C(=O)c2ccc(C(C)(C)C)cc2)CC1 (stereo partly drawn) , thanks.
Return: 26 to 50%
